# experimentalSystem: GLP-1R of the cAMP assay of Tables 10, 14 and 15 (human, UniProt P43220 24-463, limits assumed)
# testDescription: cell-based or functional assay
Non-standard residues stand in square brackets, D forms with d. Groups on a side chain read outwards from the residue. No end group written: not given here. AA10 = not defined here; AA1 = not defined here; AA2 = not defined here; AA6 = not defined here; AA9 = not defined here
# GLP-1R CAMP EC50 per record follows
Please state the figure in nM; there is no need to write the unit.

Before answering, review these 4 worked examples.
Enquiry: If you can, please state the reported GLP-1R CAMP EC50 value of [AA10][AA9]GT[AA6]TSD[AA2]([Leu-Gln-Leu-Leu])[AA1]-OH (reading uncertain; also: printed as LLQ-M6009 (AA10-AA9-AA8-AA7-AA6-AA5-AA4-AA3-(LLQ-L)AA2-AA1-OH)) [LLQ-M6009 (AA10-AA9-AA8-AA7-AA6-AA5-AA4-AA3-(LLQ-L)AA2-AA1-OH)] .
Return: 13.4

Enquiry: If you can, please state the reported GLP-1R CAMP EC50 value of [AA10][AA9]GT[AA6]TSDX-OH (not fully specified (residue 9); printed as AA10-AA9-AA8-AA7-AA6-AA5-AA4-AA3-AA2-OH) [AA10-AA9-AA8-AA7-AA6-AA5-AA4-AA3-AA2-OH] .
Return: 51.2

Enquiry: If you can, please state the reported GLP-1R CAMP EC50 value of [AA10][AA9]GT[AA6]TSD[AA2](Leu)[AA1]-OH (reading uncertain; also: also named NH2-PEG8-triazole-P8 acid, printed as M6009 (AA10-AA9-AA8-AA7-AA6-AA5-AA4-AA3-(L)AA2-AA1-OH)) [M6009 (AA10-AA9-AA8-AA7-AA6-AA5-AA4-AA3-(L)AA2-AA1-OH)] .
Return: 2.23

Enquiry: If you can, please state the reported GLP-1R CAMP EC50 value of XXGTXTSDXX-OH (not fully specified (residues 1, 2, 5, 9, 10); printed as Q-M6009 (AA10-AA9-AA8-AA7-AA6-AA5-AA4-AA3-(Q-L)AA2-AA1-OH)) [Q-M6009 (AA10-AA9-AA8-AA7-AA6-AA5-AA4-AA3-(Q-L)AA2-AA1-OH)] .
Return: 3.21

Let us move to another entry and its GLP-1R CAMP EC50.
Enquiry: If you can, please state the reported GLP-1R CAMP EC50 value of [AA10][AA9]GT[AA6]TXD[AA2][AA1]-OH (not fully specified (residue 7); printed as AA10-AA9-AA8-AA7-AA6-AA5-AA4-AA3-AA2-AA1-OH; also: AA2 azidobutoxy) [AA10-AA9-AA8-AA7-AA6-AA5-AA4-AA3-AA2-AA1-OH] .
Return: 2.94
